- assay.overview: in vitro
- condition.summary: human, CEM-SS cells
Positions of bridges follow the written chain, without caps; N, C: chain ends. Residues, ends and D or L forms follow the SMILES beside them.
measured.parameter: viability at 10 micrograms per ml (%)
Numbers only, in %.

Value lookup for viability at 10 micrograms per ml; key = CC[C@H](C)[C@@H]1NC(=O)[C@H](CCC(=O)O)NC(=O)[C@@H](NC(=O)[C@@H](NC(=O)CNC(=O)[C@@H]2CCCN2)[C@@H](C)O)CSSC[C@@H]2NC(=O)[C@H](C)NC(=O)[C@H](C)NC(=O)[C@H](Cc3ccc(O)cc3)NC(=O)[C@H](C)NC(=O)[C@H](CSSC[C@@H](C(=O)O)NC(=O)CNC(=O)[C@H]([C@@H](C)O)NC2=O)NC1=O [Guanylin] (H-PGTCEICAYAACTGC-OH; disulfide 4-12, 7-15 (inferred); N-terminus assumed)
100
